test: chemical genetic growth profiling, strain panel (AID 1159580);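 note: tested at 20 µM; growth read once vehicle control cultures reached saturation at 30 °C; 1 = growth at the plate median or of vehicle wells; lower values mean less growth of the strain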; details: S. cerevisiae deletion strains, growth OD, locus YNL183C, strain NPR1, stronger effect = lower value
Among all 5,500 compounds or so, about 2,000 (36%) were called active. Inconclusive results (about 18%) are left out. Some of the results follow.
Rule: normalized growth below 0.9 gives T, anything at or above gives F.

- compound: "Nc1ccn(C2O[C@H](CO)[C@@H](O)[C@H]2O)c(=O)n1 (stereo not given in full)"
  group: "F"
- compound: "CC1C/C(=N/Nc2ccc(Br)cc2)c2cc(Cl)ccc2S1 (stereo not given)"
  group: "T"

Now, please, on to the next compound.
Exam item: Threshold test, normalized growth < 0.9: "Cc1cc2c(C(C)C)c(O)c(O)c(C=O)c2c(O)c1-c1c(C)cc2c(C(C)C)c(O)c(O)c(C=O)c2c1O"
Marked response: F

----------
assay: chemical genetic growth profiling, strain panel (AID 1159580); settings: S. cerevisiae deletion strains, growth OD, locus YCL011C, strain gbp2, stronger effect = lower value
Among all 5,500 compounds or so, about 2,000 (36%) were called active. Inconclusive results (about 18%) are left out. The list shows a part of the results.
result type: normalized growth
Give your answer as a number; write no unit.

Below, 5 compounds whose answers are already recorded.
- compound: "C=C1C(C2(C)C=CC(=O)C(C)(C)C2CC(=O)OC)CC[C@@]2(C)[C@H](c3ccoc3)OC(=O)C3OC132 (stereo not given in full)"
  data value: 1
- compound: "CN(C)N=Nc1nc[nH]c1C(N)=O"
  data value: 0.953
- compound: "O=c1cc(-c2ccccc2)oc2cccc(O)c12"
  data value: 0.967
- compound: "CN(C)CCOC(=O)C(c1ccccc1)C1(O)CCCC1 (stereo not given)"
  data value: 1.01
- compound: "CC(=O)O[C@H]1C[C@@H](OC(C)=O)C(C)(C)C2CC(=O)[C@]3(C)C(CC[C@@]4(C)[C@H](c5ccoc5)OC(=O)[C@H]5O[C@]543)[C@]21C (stereo not given in full)"
  data value: 0.998

# normalized growth (compound: NCC(CC(=O)O)c1ccc(Cl)cc1 (stereo not given) ) is 0.992

Record summary for C=C1C2CC[C@@]3(C)[C@H](c4ccoc4)OC(=O)C[C@]13O[C@H]1CC(O)C(C)(C)C(CC(=O)OC)[C@@]21C (stereo not given in full) : reported normalized growth = 0.984

What the record says about "O=C(O)CCCOc1ccc(Cl)cc1Cl" : normalized growth is 0.957

Data point: C[C@H](CCC(=O)O)[C@H]1CCC2C3C(CC[C@@]21C)[C@@]1(C)CC[C@@H](O)C[C@H]1C[C@H]3O (stereo not given in full) ; normalized growth = 1

normalized growth recorded for this compound, "CN(C)CCOC(=O)COc1ccc(Cl)cc1" , is 0.957

----------
experiment: chemical genetic growth profiling, strain panel (AID 1159580); conditions: S. cerevisiae deletion strains, growth OD, locus YEL003W, strain gim4, stronger effect = lower value
In all, about 5,500 compounds went through this assay and about 2,000 (36%) were called active. Not shown: some 18% with an inconclusive outcome. Some of the results follow.
Catalogue of compounds with associated normalized growth
Form rule: numeric answer, no unit written next to it.

# example entries with known answers
- compound: "CC1(C)C(O)CC(O)C2(C)C1CC(O)C1(C)C2CCC2(C)C(c3ccoc3)OC(=O)C3OC321 (stereo unspecified)"
  data value: 1.01
- compound: "O=c1cc(-c2cc(O)c(O)c(O)c2)oc2cc(O)cc(O)c12"
  data value: 0.957
- compound: "C[C@@H]1CC2C3CCC4=CC(=O)C=C[C@]4(C)[C@@]3(F)[C@@H](O)C[C@]2(C)[C@H]1C(=O)CO (stereo partly specified)"
  data value: 0.999

Consider "CCCCC[C@H](CC(=O)NO)C(=O)N[C@H](C(=O)N1CCC[C@H]1CO)C(C)C" . Its measured normalized growth is 1.02

Record "CCOC(=O)[C@H](CCc1ccccc1)N[C@@H](C)C(=O)N1Cc2ccccc2C[C@H]1C(=O)O" . Reported normalized growth: 1.02

For this compound ( "N#C/C(=C\c1cccc(O)c1)C(=O)O" ), measured normalized growth is 0.997

----------
test: chemical genetic growth profiling, strain panel (AID 1159580); conditions: S. cerevisiae deletion strains, growth OD, locus YFR010W, strain ubp6, stronger effect = lower value
In all, about 5,500 compounds went through this assay and about 2,000 (36%) were called active. Inconclusive results (about 18%) are left out. Some of the results follow.
Property: normalized growth; scope: individual molecules
Lab note: record just the number, no unit beside it.

- molecule: "CC(CCC(=O)O)[C@H]1CCC2C3CC[C@@H]4C[C@H](O)CC[C@]4(C)C3CC[C@@]21C (some centres undefined)"
  normalized growth: 0.982
- molecule: "CNCCCN1c2ccccc2CCc2ccccc21"
  normalized growth: 1.01
- molecule: "CC(CCC(=O)O)[C@H]1CCC2C3C(C[C@H](O)[C@@]21C)[C@@]1(C)CC[C@@H](O)C[C@H]1C[C@H]3O (some centres undefined)"
  normalized growth: 1.03
- molecule: "CC(CN1c2ccccc2Sc2ccccc21)N(C)C (centres undefined)"
  normalized growth: 0.88
- molecule: "COC(=O)CCC(C)C1CCC2C3CC[C@@H]4C[C@H](O)CC[C@]4(C)C3C[C@H](O)[C@]12C (some centres undefined)"
  normalized growth: 1.04

Note to self: normalized growth recorded for CC(CN(C)C)CN1c2ccccc2CCc2ccccc21 (centres undefined) was 0.954

Please fill in: normalized growth reported for C[C@H](CCC(=O)O)[C@H]1CCC2C3C(CC[C@@]21C)[C@@]1(C)CC[C@@H](O)C[C@H]1C[C@@H]3O (some centres undefined) = 0.969

// normalized growth value for CC(CCC(=O)O)[C@H]1CCC2C3CC[C@@H]4C[C@H](O)CC[C@]4(C)C3C[C@H](O)[C@@]21C (some centres undefined) : 1.02

Item: "COc1cc(C)c(C(=O)Oc2cc(C)c(C(=O)O)c(O)c2C)c(OC)c1C" | normalized growth: 0.991

----------
# maps each entry to its normalized growth
test: chemical genetic growth profiling, strain panel (AID 1159580);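 note: tested at 20 µM; growth read once vehicle control cultures reached saturation at 30 °C; 1 = growth at the plate median or of vehicle wells; lower values mean less growth of the strain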; conditions: S. cerevisiae deletion strains, growth OD, locus YHR027C, strain rpn1, stronger effect = lower value
The campaign covered roughly 5,500 compounds. About 2,000 (36%) were called active. Roughly 18% stayed inconclusive and do not appear here. The list shows a part of the results.
Just the number, please, no unit attached.

For orientation, consider the following solved cases.
- compound: "CN(C(=O)CN(CCO)CC(=O)N(C)C(C)(C)Cc1ccccc1)C(C)(C)Cc1ccccc1"
  normalized growth: 1.02
- compound: "Cc1ncc([N+](=O)[O-])n1CC(C)O (configuration not stated)"
  normalized growth: 0.987

The reported value for "NNCCc1ccccc1" in terms of normalized growth is 1

Field normalized growth (entry "Cc1nc2ccccn2c(=O)c1CCN1CCC(C(=O)c2ccc(F)cc2)CC1" ) reads 0.985

----------
test: chemical genetic growth profiling, strain panel (AID 1159580);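 note: tested at 20 µM; growth read once vehicle control cultures reached saturation at 30 °C; 1 = growth at the plate median or of vehicle wells; lower values mean less growth of the strain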; conditions: S. cerevisiae deletion strains, growth OD, locus YBR023C, strain chs3, stronger effect = lower value
About 2,000 (36%) of roughly 5,500 compounds were called active. Roughly 18% stayed inconclusive and do not appear here. The list shows a part of the results.
Below, each of the compounds is paired with its reported normalized growth value.
Answer with a bare number; do not write a unit.

Note to self: normalized growth recorded for CC(CCC(=O)O)[C@H]1CCC2C3C(C[C@H](O)[C@@]21C)[C@@]1(C)CC[C@@H](O)C[C@H]1C[C@H]3O (stereo not given in full) was 1.01

response.value for COC(=O)CCC(C)C1CCC2C3CC[C@@H]4C[C@H](O)CC[C@]4(C)C3C[C@H](O)[C@]12C (stereo not given in full) (field: normalized growth) = 0.909

// recorded normalized growth for "O=[N+]([O-])c1cccc2cn[nH]c12" : 0.991

# compound CC(C)CCCC(C)C1CCC2C3CC[C@H]4CCCC[C@]4(C)C3CC[C@]12C (stereo not given in full) ; its normalized growth = 1.02

What the record says about COc1cc(S(C)=O)ccc1-c1nc2ncccc2[nH]1 (stereo not given) : normalized growth is 0.98

----------
normalized growth: recorded values
experiment: chemical genetic growth profiling, strain panel (AID 1159580);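 note: tested at 20 µM; growth read once vehicle control cultures reached saturation at 30 °C; 1 = growth at the plate median or of vehicle wells; lower values mean less growth of the strain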; settings: S. cerevisiae deletion strains, growth OD, locus YMR205C, strain PFK2, stronger effect = lower value
Hit rate of the full screen: of about 5,500 compounds, about 2,000 (36%) were called active. Roughly 18% stayed inconclusive and do not appear here. Some of the results follow.
Reply briefly: the number, and no unit.

Answered examples (5):
- molecule: "N[C@H](Cc1cc(I)c(Oc2ccc(O)c(I)c2)c(I)c1)C(=O)O"
  result type: "normalized growth"
  data value: 0.88
- molecule: "CCN(CC)C(C)CN1c2ccccc2Sc2ccccc21 (centres undefined)"
  result type: "normalized growth"
  data value: 0.912
- molecule: "COc1ccc(C(=O)N2CCCC2=O)cc1"
  result type: "normalized growth"
  data value: 0.971
- molecule: "CN(C)N=Nc1nc[nH]c1C(N)=O"
  result type: "normalized growth"
  data value: 0.927
- molecule: "O=c1cc(-c2ccccc2)oc2cc(O)c(O)c(O)c12"
  result type: "normalized growth"
  data value: 0.294

Read the next record carefully.
CC(CN1c2ccccc2Sc2ccccc21)N(C)C (centres undefined) yielded normalized growth of 0.968
